Reference source for all entries: the supplement of paper PMC10126150

# Tested on: ATP;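 also: ATP exposure 15 min at 22 °C before imaging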
# assay_name: switch fluorescence ratio, 500 uM ATP over buffer (Cy3 cluster intensity, sum of 5 cycles each) (fold (ratio)); higher = stronger signal-on switching upon ATP binding; sequences stand for … in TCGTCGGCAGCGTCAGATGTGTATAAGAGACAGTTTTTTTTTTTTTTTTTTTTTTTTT…TC
# setup_conditions: aptamer strand: ATP DNA aptamer (quencher-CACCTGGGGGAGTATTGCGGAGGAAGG + anchor), 100 nM annealed; ATP concentration: 500 uM
Recorded measurements of switch fluorescence ratio, one per entry
Please give the numeric answer without any surrounding text.

Would you please look over these solved cases?
AGTGTTACGT 0.989
TATTCAGGGG 1.03
GCCGGTTTTG 1.01
AGGGAGGTGC 1.02
ATATTGCTGA 0.978
CGGTAGGACA 1

Can you share its switch fluorescence ratio? I mean this sequence: "TTAATTAACC"
1.13

Can you share its switch fluorescence ratio? I mean this sequence: "GATGGGGAGG"
0.98

Can you share its switch fluorescence ratio? I mean this sequence: "TTAACACTCC"
1.2

Can you share its switch fluorescence ratio? I mean this sequence: "AGGCAGGGGA"
1.03

----------
Recorded measurements of switch fluorescence ratio, one per entry
# Tested on: ATP;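 also: ATP exposure 15 min at 22 °C before imaging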
# assay_name: switch fluorescence ratio, 500 uM ATP over buffer (Cy3 cluster intensity, sum of 5 cycles each) (fold (ratio)); higher = stronger signal-on switching upon ATP binding; sequences stand for … in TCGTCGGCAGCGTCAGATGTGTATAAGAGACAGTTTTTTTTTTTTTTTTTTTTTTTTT…TC
# setup_conditions: aptamer strand: ATP DNA aptamer (quencher-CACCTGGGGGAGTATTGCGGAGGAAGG + anchor), 100 nM annealed; ATP concentration: 500 uM

Would you please look over these solved cases?
GTTAATGTAA 0.993
TGCTTTATAT 1.18

Can you share its switch fluorescence ratio? I mean this sequence: "AGTCAGGCGA"
1.01

Can you share its switch fluorescence ratio? I mean this sequence: "GCATTATAT"
1.03

Can you share its switch fluorescence ratio? I mean this sequence: "ACGGAATTTG"
1.04

----------
# Test system: ATP;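 also: ATP exposure 15 min at 22 °C before imaging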
# assay_name: switch fluorescence ratio, 500 uM ATP over buffer (Cy3 cluster intensity, sum of 5 cycles each) (fold (ratio)); higher = stronger signal-on switching upon ATP binding; sequences stand for … in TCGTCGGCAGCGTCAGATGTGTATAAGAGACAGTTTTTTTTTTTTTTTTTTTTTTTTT…TC
# setup_conditions: aptamer strand: ATP DNA aptamer (quencher-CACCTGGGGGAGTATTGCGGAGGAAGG + anchor), 100 nM annealed; ATP concentration: 500 uM
Recorded measurements of switch fluorescence ratio, one per entry
Please give the numeric answer without any surrounding text.

CTGGTTTTCG 1
TTGGATCCGC 1.32
CTTCGCCTTT 1.06
TGGCGTGGGG 1.01
TTTCTGTGCG 1

Continue with the next sequence.
Can you share its switch fluorescence ratio? I mean this sequence: "TGTTTAAATG"
1.01

----------
# Test system: ATP;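 also: ATP exposure 15 min at 22 °C before imaging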
# assay_name: switch fluorescence ratio, 500 uM ATP over buffer (Cy3 cluster intensity, sum of 5 cycles each) (fold (ratio)); higher = stronger signal-on switching upon ATP binding; sequences stand for … in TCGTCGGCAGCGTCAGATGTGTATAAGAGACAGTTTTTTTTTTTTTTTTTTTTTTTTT…TC
# setup_conditions: aptamer strand: ATP DNA aptamer (quencher-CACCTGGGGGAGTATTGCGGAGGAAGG + anchor), 100 nM annealed; ATP concentration: 500 uM
measured_endpoint: switch fluorescence ratio

TCCGTCGGGG 1.01
CGTGGTGGG 0.968
TTTTCATTAT 1.05
TTCTTGAGGT 0.967
CGCGTACGTT 1.05
CCCCTGACAA 1.79
TATAATTTCT 1.04
TTAATAAATC 0.996

Can you share its switch fluorescence ratio? I mean this sequence: "GCATCATGTT"
0.987

Can you share its switch fluorescence ratio? I mean this sequence: "AGGATGGACG"
1.02

Can you share its switch fluorescence ratio? I mean this sequence: "CGACTATAGG"
1
